Each recorded value in this set is attributed to PubChem BioAssay (NCI).

Please go through the items and note down their GI50.

Tested on NCI-H460 lung, the item CO/N=C(\COc1ccc2c(c1)[nH]c1ccccc12)c1ccc(OC)cc1 showed GI50 equal to 21.8 µM

Tested on NCI-H460 lung, the item CC(CO)Nc1cc(-c2[nH]c3cccnc3c2-c2ccc(F)cc2)ccn1 (stereo not given) showed GI50 equal to 8.16 µM

Tested on NCI-H460 lung, the item O=C(O)c1nc(NCc2nc3cc(Cl)ccc3o2)n[nH]1 showed GI50 equal to > 100 µM

Tested on NCI-H460 lung, the item COc1cc(C)ccc1C(=O)c1ccc(C)cc1OC showed GI50 equal to 3.39 µM

Tested on NCI-H460 lung, the item Cc1ccc2cnc(N)c(C#Cc3cc(C(=O)Nc4ccc(CN5CCN(C)CC5)c(C(F)(F)F)c4)cnc3C)c2c1 showed GI50 equal to 0.604 µM
